Protocol: Multi-component pharmacokinetic study of GQD, GQD-GC and single herb extracts in rats (plasma, LC/MS/MS)
Assay type: in vivo, Sprague-Dawley rats
Condition Context: male, Sprague-Dawley, rat; GQD-GC group (GQD without Gan-Cao): rats, oral 16.5 g/kg, plasma; read-out: Tmax
Below, each of the compounds is paired with its reported log10 Tmax value.
Measure: log10 Tmax (log10 of the value in min)

Compound	log10 Tmax
COc1c(O)c(O[C@@H]2O[C@H](C(=O)O)[C@@H](O)[C@H](O)[C@H]2O)cc2oc(-c3ccccc3)cc(=O)c12 [Compound 38, lateriflorein 7-O-glucuronide]	1.31
COc1cc2c(cc1O)CC[n+]1cc3c(OC)c(OC)ccc3cc1-2	1.58
COc1ccc(-c2coc3cc(O[C@@H]4O[C@H](CO)[C@@H](O)[C@H](O)[C@H]4O)ccc3c2=O)cc1	1.65
O=C(O)[C@H]1O[C@@H](Oc2cc3oc(-c4ccccc4)cc(=O)c3c(O)c2O)[C@H](O)[C@@H](O)[C@@H]1O	2.67
O=c1c(-c2ccc(O)cc2)coc2c(C3OC(COC4OCC(O)(CO)C4O)C(O)C(O)C3O)c(O)cc(O)c12 (stereo not drawn)	1.97
O=C(O)[C@H]1O[C@@H](Oc2cc(O)c3c(=O)cc(-c4ccccc4)oc3c2O)[C@H](O)[C@@H](O)[C@@H]1O [Compound 14, norwogonin 7-O-glucuronide]	2.57
COc1ccc(-c2coc3c(C4OC(COC5OCC(O)(CO)C5O)C(O)C(O)C4O)c(O)ccc3c2=O)cc1 (stereo not drawn)	1.49
O=c1c(-c2ccc(O)cc2)coc2cc(O[C@@H]3O[C@H](CO)[C@@H](O)[C@H](O)[C@H]3O)cc(O)c12	1.80
COc1cc2c(cc1OC)-c1cc3ccc4c(c3c[n+]1CC2)OCO4 [Compound 22, epiberberine]	1.51
O=c1c(-c2ccc(O)cc2)coc2c([C@@H]3O[C@H](CO)[C@@H](O)[C@H](O)[C@H]3O)c(O)ccc12	1.49
COc1ccc(C2=CC(=O)OC2Cc2ccc(O)cc2)c(OC2OC(CO)C(O)C(O)C2O)c1 [Compound 41, (4S)-puerol B 2″-O-glucopyranoside]	1.50
COc1c(O)cc(O)c2c(=O)cc(-c3ccccc3)oc12	2.68
COc1c(O)cc(OC2OC(CO)C(O)C(O)C2O)c2c(=O)cc(-c3ccccc3)oc12 (stereo not drawn) [Compound 13, wogonin 5-O-glucoside]	2.08
COc1ccc2c(c1O)-c1c(O)c(OC)cc3c1[C@H](C2)[N+](C)(C)CC3	1.23
COc1ccc2cc3[n+](cc2c1OC)CCc1cc2c(cc1-3)OCO2	1.32
